test system: SNB-75; experiment: NCI tumour cell line growth inhibition, 48 h
Activity calls are given as the source filed them. No stated cut-off is given here; in the data, active = GI50 up to about 1.1 µM and inactive = higher.
Possible outcomes: 1 (active), -1 (inactive)

compound=CC[C@@]1(O)C(=O)OCc2c1cc1n(c2=O)Cc2c-1nc1ccc(O)cc1c2CC[Si](C)(C)C class_assignment=1
compound="CCOC(O)C(F)(F)F (stereo unspecified)" class_assignment=-1
compound="C=C(C)C1Cc2c(cc(OC)c3c(=O)c4cccc(O)c4oc23)O1 (stereo unspecified)" class_assignment=-1
compound=O=C1/C(=C/c2cccs2)NC(=S)N1CN1CCOCC1 class_assignment=-1
compound=COc1cc2c(cc1C)NC(=O)/C2=C\c1ccncc1 class_assignment=-1
compound=Cc1ccc2nc(N/N=C/c3sccc3C)cc(C)c2c1 class_assignment=-1
compound="N#CC(C(=O)C(=O)NCCCNC(=O)C(=O)C(C#N)c1ccccc1)c1ccccc1 (stereo unspecified)" class_assignment=-1
compound=CC(C)(C)C1=CC(=C(c2ccc(-c3c4nc(c(-c5ccc(C(=C6C=C(C(C)(C)C)C(=O)C(C(C)(C)C)=C6)c6cc(C(C)(C)C)c(O)c(C(C)(C)C)c6)cc5)c5ccc([nH]5)c(-c5ccc(C(=C6C=C(C(C)(C)C)C(=O)C(C(C)(C)C)=C6)c6cc(C(C)(C)C)c(O)c(C(C)(C)C)c6)cc5)c5nc(c(-c6ccc(C(=C7C=C(C(C)(C)C)C(=O)C(C(C)(C)C)=C7)c7cc(C(C)(C)C)c(O)c(C(C)(C)C)c7)cc6)c6ccc3[nH]6)C=C5)C=C4)cc2)c2cc(C(C)(C)C)c(O)c(C(C)(C)C)c2)C=C(C(C)(C)C)C1=O class_assignment=-1
compound=COC(=O)/C=C(C)/C=C/c1cc(C(C)=O)c(C)o1 class_assignment=-1
compound="CCN1CC2=C(N=c3s/c(=C\\c4ccc(Cl)cc4)c(=O)n3C2c2ccc(Cl)cc2)/C(=C/c2ccc(Cl)cc2)C1 (stereo unspecified)" class_assignment=-1
compound="COc1ccccc1N1C(=O)/C(=C\\c2cccc(Oc3ccccc3)c2)SC1c1ccccc1 (stereo unspecified)" class_assignment=-1
compound="COC1=CC(=O)C(C2CC(=O)c3c(O)cc(O)cc3O2)=CC1=O (stereo unspecified)" class_assignment=-1
compound="Cc1cn(C2C=CC(COP(=O)(OCC3=CC(=O)c4ccccc4C3=O)N(C)CCCCCl)O2)c(=O)[nH]c1=O (stereo unspecified)" class_assignment=-1
compound=CCOC(=O)C1=C(O)C(=O)c2ccsc2C1=O class_assignment=-1
compound="CC(C)(C)OC(=O)C(C1NC(C(=O)O)C(C)(C)S1)N1C(=O)c2ccccc2C1=O (stereo unspecified)" class_assignment=-1
compound="CCOc1ccccc1NC(=O)C(=O)C(/C(=N/N)C(=O)OC)c1nc2ccc([N+](=O)[O-])cc2nc1O (stereo unspecified)" class_assignment=-1
compound=C/C(Nc1ccc(F)cc1)=C1/CCOC1=O class_assignment=-1
compound=CCCCCN(CCCCC)C(=O)[C@H](CCC(=O)OCc1ccccc1)NC(=O)c1cc2ccccc2[nH]1 class_assignment=-1
compound=CCCC(=O)Nc1cc(/C=C/C(=O)N2C[C@H]3C[C@@]34C2=CC(=O)c2[nH]cc(C)c24)n(C)c1 class_assignment=1
compound="COC(=O)C(Cc1ccccc1)NC(=O)CCCNC(=O)OCc1ccccc1 (stereo unspecified)" class_assignment=-1
compound=Cn1cccc1-c1ccc(-c2ccc(CO)[se]2)[se]1 class_assignment=-1
compound=Cc1nc2c(nc1Cl)nc(Oc1ccc(Cl)cc1)c1ccccc12 class_assignment=-1
compound=COc1cc2c(cc1C)NC(=O)/C2=C/c1c(Cl)n(-c2ccccc2)c2ccccc12 class_assignment=-1
compound=COc1cc(/C=C/c2cc(/C=C/c3ccc(O)c(OC)c3)oc(=O)c2)ccc1O class_assignment=1
compound="O=C(N/N=C(/CCN1CCCC1)CC(c1ccccc1)c1c(O)c2ccccc2oc1=O)c1ccncc1 (stereo unspecified)" class_assignment=-1
compound="O=C(O)CCC1C(=O)C2CCN1CC2 (stereo unspecified)" class_assignment=-1
compound="COc1cccc2c1OC(c1ccc(C#N)cc1)C([N+](=O)[O-])=C2 (stereo unspecified)" class_assignment=-1
compound="CCOC(=O)CC(NCc1ccc(/N=C/c2nc3ccc(C(F)(F)F)cc3nc2-c2ccccc2)cc1)C(=O)OCC (stereo unspecified)" class_assignment=-1
compound=COc1cc(N)c2[nH]c3c(C)ccc(C)c3c2c1 class_assignment=-1
compound="Fc1ccc(C(OCCN2CC3CC2CN3CCCc2ccccc2)c2ccc(F)cc2)cc1 (stereo unspecified)" class_assignment=1
compound=O=c1c2cnccc2cc2c3ccccc3ccn12 class_assignment=-1
compound=O=S(=O)(c1ccc(Br)cc1)N1CCN(S(=O)(=O)c2ccc(Br)cc2)CC1 class_assignment=-1
compound=Cc1cc(C)nc(Sc2c([N+](=O)[O-])ncn2C)n1 class_assignment=-1
compound=CC1=NC(=Cc2ccc(Cl)cc2)C(=O)N1n1c(-c2ccccc2)nc2ccccc2c1=O class_assignment=-1
compound="O=C1CC2(CCC(O)(c3ccc4ccccc4c3)C(C(=O)c3ccc4ccccc4c3)C2)C(=O)c2ccccc2N1 (stereo unspecified)" class_assignment=-1
compound="O=C(Nc1ccc2[nH]c(C(=O)N3CC(CCl)c4c3cc([N+](=O)[O-])c3ccccc43)cc2c1)Nc1ccc2[nH]c(C(=O)N3CC(CCl)c4c3cc([N+](=O)[O-])c3ccccc43)cc2c1 (stereo unspecified)" class_assignment=-1

* * *

tested on: HT-29; experiment: NCI tumour cell line growth inhibition, 48 h
Activity calls are given as the source filed them. No stated cut-off is given here; in the data, active = GI50 up to about 1.1 µM and inactive = higher.
Possible outcomes: active, inactive

compound="CN1C(=O)CSC1=S [3-METHYL-RHODANINE]" class_assignment=inactive
compound=CC1=C(C)C(=O)C2=C(OCCO2)C1=O class_assignment=inactive
compound=O=C1CCC(=O)N1CNc1ccc2c(c1)S(=O)(=O)c1ccccc1O2 class_assignment=inactive
compound=O=C(OCCN=c1c2ccccc2ccc2ccccc12)c1ccc([N+](=O)[O-])cc1 class_assignment=inactive
compound="O=C(NS(=O)(=O)c1ccccc1)C(Cc1ccccc1)C(Cc1ccccc1)C(=O)NS(=O)(=O)c1ccccc1 (stereo unspecified)" class_assignment=inactive
compound="COC(=O)C1=C(C(=O)OC)C2(C)OC1C(=O)C21CC1 (stereo unspecified)" class_assignment=inactive
compound=COc1cc2c(c(OC)c1OC)-c1ccc(SC)c(=O)cc1[C@@H](NC(=O)C(F)(F)F)CC2 class_assignment=active
compound=CC(C)(C)OC(=O)n1c2ccccc2c2c(=O)nc(N3CCCCC3)sc21 class_assignment=inactive
compound=CN1CCc2c([nH]c3ccccc23)C1 class_assignment=inactive
compound=c1ccc(-c2cc(-c3cccs3)c(-c3cccs3)s2)cc1 class_assignment=inactive
compound=N#Cc1nnc2ccccc2c1N class_assignment=inactive

* * *

system: NCI-H522; assay: NCI tumour cell line growth inhibition, 48 h
Active and inactive are the calls of the source. Cut-off read from the data, not from the text of the source: active = GI50 up to about 1.1 µM and inactive = higher.
Possible outcomes: active, inactive

compound=O=c1ccc(=O)c2c1c1[nH]c3ccccc3c1c1c(=O)c3ccccc3c(=O)c21 class_assignment=inactive
compound=CCOC(=O)C1=C(O)C(=O)c2ccsc2C1=O class_assignment=inactive
compound=O=S1(=O)c2ccccc2N(O)C2=NCCN21 class_assignment=inactive
compound=C/C(=N\Nc1cc(CN2CCCC2)c(-c2ccc(Cl)cc2)nn1)C(=O)O class_assignment=inactive
compound="CC(=O)OCC1OC(c2nnc(C)o2)=CC(OC(C)=O)C1OC(C)=O (stereo unspecified)" class_assignment=inactive
compound=NC(=O)c1ccccc1NC(=O)C(=O)Cc1nc2ccccc2nc1O class_assignment=inactive
compound="O=C(O)CCC1C(=O)C2CCN1CC2 (stereo unspecified)" class_assignment=inactive
compound="CC(C)(C)C(=O)OC12/C(=N/O)CCCCCC1c1ccccc12 (stereo unspecified)" class_assignment=inactive
compound=COc1ccc2nc3ccccc3c(NCCCCN(C)CCCl)c2c1 class_assignment=active
compound="CC(C)(C)OC(=O)NNCC(O)COc1ccccc1 (stereo unspecified)" class_assignment=inactive
compound="Cc1ccc(S(=O)(=O)CN2C(=O)C(c3ccccc3)(c3ccccc3)C23OC(c2ccc(Cl)cc2)=CC3=O)cc1 (stereo unspecified)" class_assignment=inactive

* * *

system: RPMI-8226; assay: NCI tumour cell line growth inhibition, 48 h
Active and inactive are the calls of the source. Rule as the data show it: active = GI50 up to about 1.1 µM and inactive = higher.
Possible outcomes: T (active), F (inactive)

molecule=CN1CCc2c([nH]c3ccccc23)C1 experimental_target=RPMI-8226 class_assignment=F
molecule="O=C(NC(Cc1c[nH]c2ccccc12)C(=O)Nc1ccc(Br)cc1)OCc1ccccc1 (stereo unspecified)" experimental_target=RPMI-8226 class_assignment=F
molecule="O=[N+]([O-])C1=Cc2c(O)ccc(O)c2C2OC=CC12 (stereo unspecified)" experimental_target=RPMI-8226 class_assignment=F
molecule="CC(C)(C)CC(C)(C)c1ccc(OCCOCC[N+](C)(C)Cc2ccccc2)cc1 [BENZETHONIUM CHLORIDE]" experimental_target=RPMI-8226 class_assignment=F
molecule="Cc1ccc(C2=Nc3ccccc3SC(c3cccc4c3OCO4)C2)cc1 (stereo unspecified)" experimental_target=RPMI-8226 class_assignment=F
molecule=Cc1nc(N)sc1C(=O)/C=C/c1ccc(/C=C/C(=O)c2sc(NC(=O)CCCCCCCCC(=O)Nc3nc(C)c(C(=O)/C=C/c4ccc(/C=C/C(=O)c5sc(N)nc5C)cc4)s3)nc2C)cc1 experimental_target=RPMI-8226 class_assignment=F
molecule=NS(=O)(=O)c1nnc(NSc2ccc([N+](=O)[O-])cc2)s1 experimental_target=RPMI-8226 class_assignment=F
molecule=CNC(=O)c1cccc2c(Nc3ccc(NS(C)(=O)=O)cc3OC)c3cccc(C)c3nc12 experimental_target=RPMI-8226 class_assignment=T
molecule="CC(=O)OCC1OC(n2c(C)c(/N=N/c3ccc(C)cc3)c(C)c(C#N)c2=S)C(OC(C)=O)C(OC(C)=O)C1OC(C)=O (stereo unspecified)" experimental_target=RPMI-8226 class_assignment=F
molecule="COC(=O)C(NC(=O)OC(C)(C)C)P(=O)(OC)OC (stereo unspecified)" experimental_target=RPMI-8226 class_assignment=F
molecule=c1ccc(-c2cc(-c3cccs3)c(-c3cccs3)s2)cc1 experimental_target=RPMI-8226 class_assignment=F
molecule=Cc1ccc2[nH]c3c(c2c1)CCC/C3=N/N=C(N)N experimental_target=RPMI-8226 class_assignment=F
molecule="CCOC(=O)C1C(c2ccco2)C2(C#N)C(=N)OC1(C)C2(C#N)C#N (stereo unspecified)" experimental_target=RPMI-8226 class_assignment=F
molecule="Cc1[nH]c2ccccc2c1C1=NO/C(=N\\O)C(c2c(C)[nH]c3ccccc23)C1 (stereo unspecified)" experimental_target=RPMI-8226 class_assignment=F
molecule=COc1ccccc1OCc1nnc(SCC(=O)O)n1-c1ccccc1 experimental_target=RPMI-8226 class_assignment=F
molecule=COc1ccccc1OC(=O)/C=C/c1ccccc1 experimental_target=RPMI-8226 class_assignment=F
molecule="CC(=O)OC1C(=O)C(O)C(C)OC1O[C@@H]1C[C@@]2(C)[C@@H]3CC=C4[C@@H](C[C@H](O)C(=O)C4(C)C)[C@]3(C)C(=O)C[C@]2(C)[C@H]1[C@@](C)(O)C(=O)/C=C/C(C)(C)O (stereo partly specified)" experimental_target=RPMI-8226 class_assignment=T
molecule=CC(=O)OCc1cn(S(=O)(=O)c2ccc(C)cc2)cn1 experimental_target=RPMI-8226 class_assignment=F
molecule=COc1cc(/C=C2/CCCc3ccccc3C2=O)cc(OC)c1OC experimental_target=RPMI-8226 class_assignment=F
molecule=COc1ccc2c(c1)-c1[nH]c3ccc(OC)cc3c1CC2 experimental_target=RPMI-8226 class_assignment=F
molecule=CCN(CC)CCN1c2ccccc2Sc2ccc3ccccc3c21 experimental_target=RPMI-8226 class_assignment=F
molecule=CCOC(=O)c1nc2cc(Cl)ccc2[nH]c1=O experimental_target=RPMI-8226 class_assignment=F
molecule="CCOC(=O)c1cc(C2CCN(c3ccccc3)C2=O)c(C(=O)/C=C(/C)N)[nH]1 (stereo unspecified)" experimental_target=RPMI-8226 class_assignment=F
molecule=COC/C=C\[C@]1(O)CCCC[C@@H]1CC(OC)OC experimental_target=RPMI-8226 class_assignment=F
molecule=O=C1CCC(=O)N1CNc1ccc2c(c1)S(=O)(=O)c1ccccc1O2 experimental_target=RPMI-8226 class_assignment=F
molecule="C=CCCCCCCCC(O)C1C[C@H](O)C(CCCCC)O1 (stereo partly specified)" experimental_target=RPMI-8226 class_assignment=F
molecule="C=C1C2C[C@@H]3O[C@H]4C[C@H]5O[C@@]6(C[C@@H]7O[C@]8(C[C@H](C)[C@@H]9O[C@@H]%10CC(CO)O[C@@H]%10C[C@@H]9O8)C[C@H](C)[C@@H]7O6)C[C@H]5O[C@H]4[C@H](C)[C@H]3OC(=O)C[C@H]3CC[C@@H]4OC5[C@H]6O[C@]7(CC[C@H]8CC(=C)[C@H](CC[C@@H](C[C@H]1C)O2)O8)CC6O[C@@H]5[C@@H](O7)[C@H]4O3 (stereo partly specified)" experimental_target=RPMI-8226 class_assignment=T
molecule="CC(=O)OC1C(CCl)OC(N=[N+]=[N-])C(OC(C)=O)C1OC(C)=O (stereo unspecified)" experimental_target=RPMI-8226 class_assignment=F
molecule="O=C(Nc1ccc2[nH]c(C(=O)N3CC(CCl)c4c3cc([N+](=O)[O-])c3ccccc43)cc2c1)Nc1ccc2[nH]c(C(=O)N3CC(CCl)c4c3cc([N+](=O)[O-])c3ccccc43)cc2c1 (stereo unspecified)" experimental_target=RPMI-8226 class_assignment=F
molecule=CN(/N=C/c1ccnc2ccccc12)c1c([N+](=O)[O-])cc([N+](=O)[O-])cc1[N+](=O)[O-] experimental_target=RPMI-8226 class_assignment=F
molecule="CC1=NN(c2cccc(Cl)c2)C2(SCC(=O)N2c2nc3ccccc3s2)/C1=C\\c1ccc(N(C)C)cc1 (stereo unspecified)" experimental_target=RPMI-8226 class_assignment=F
molecule=O=C1Nc2ccccc2/C1=N/NC(=S)N1CCCCC1 experimental_target=RPMI-8226 class_assignment=T
molecule=OC[C@@H](O)[C@H](O)[C@@H](O)/C=N/Nc1ccc(Cl)nn1 experimental_target=RPMI-8226 class_assignment=F
molecule=CN(C)CCCn1c(-c2ccc(Br)cc2)cs/c1=N\c1ccccc1 experimental_target=RPMI-8226 class_assignment=F
molecule=CC(=O)/C(=C\C1=CCCO1)C(=O)Nc1ccccc1C experimental_target=RPMI-8226 class_assignment=F
molecule="COC1(OC)C=CC2C1C1C=CC2C1(OC)OC (stereo unspecified)" experimental_target=RPMI-8226 class_assignment=F
